protocol summary: self-splicing fitness, log relative to wild type (ln ratio); higher = more splicing; Tetrahymena group I intron in knt gene, E. coli kanamycin selection, DiMSum; sequences stand for … in CUCUCU…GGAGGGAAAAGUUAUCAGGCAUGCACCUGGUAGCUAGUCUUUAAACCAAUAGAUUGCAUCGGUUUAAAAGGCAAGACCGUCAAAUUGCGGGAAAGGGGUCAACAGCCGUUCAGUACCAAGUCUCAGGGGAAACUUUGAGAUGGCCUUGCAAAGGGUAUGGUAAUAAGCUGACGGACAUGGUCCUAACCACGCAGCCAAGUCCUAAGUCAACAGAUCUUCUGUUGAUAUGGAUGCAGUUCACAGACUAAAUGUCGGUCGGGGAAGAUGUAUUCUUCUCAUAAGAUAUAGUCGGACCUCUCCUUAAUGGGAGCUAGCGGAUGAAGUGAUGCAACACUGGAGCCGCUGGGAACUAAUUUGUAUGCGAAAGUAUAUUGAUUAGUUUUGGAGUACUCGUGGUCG;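 further: selection with 25 µg/mL kanamycin versus none on LB agar overnight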
test settings: 37 °C
Given measured self-splicing fitness (ln), output YES if it is greater than or equal to -2 and NO if not.

input_sequence=AAUCAGCAAUAUUACGUGCG label_value=YES
input_sequence=GACCAGCAAUAUUACGCUUC label_value=YES
input_sequence=GAUGAGCAAUAUUACGCGGC label_value=NO
input_sequence=UGUAAGCAAUAUUACGAAUA label_value=YES
input_sequence=AUGAAGCAAUAUUACGUUGG label_value=YES
input_sequence=AAGAAGCAAUAUUACGGGAA label_value=YES
input_sequence=CCCCAGCAAUAUUACGCGCU label_value=NO
input_sequence=AUGCAGCAAUAUUACGACCA label_value=YES
input_sequence=ACACAGCAAUAUUACGGACA label_value=YES
input_sequence=GGCCAGCAAUAUUACGGCAA label_value=YES
input_sequence=UCGUAGCAAUAUUACGUAUA label_value=YES
input_sequence=UCCAAGCAAUAUUACGCUCU label_value=YES
input_sequence=UCCAAGCAAUAUUACGUACU label_value=NO
input_sequence=GCUCAGCAAUAUUACGUUUG label_value=YES
input_sequence=CCUUAGCAAUAUUACGAGCU label_value=NO
input_sequence=CAUUAGCAAUAUUACGUCAU label_value=NO
input_sequence=ACGCAGCAAUAUUACGCAUC label_value=YES
input_sequence=UUAUAGCAAUAUUACGGGAC label_value=NO
input_sequence=AAUAAGCAAUAUUACGGGCC label_value=NO
input_sequence=CGGUAGCAAUAUUACGGAUU label_value=NO
input_sequence=UAUAAGCAAUAUUACGUGUC label_value=YES
input_sequence=GAGGAGCAAUAUUACGGUUG label_value=NO
input_sequence=GAUGAGCAAUAUUACGCGAG label_value=YES
input_sequence=GUGUAGCAAUAUUACGCGGA label_value=YES
input_sequence=AAUGAGCAAUAUUACGGGUG label_value=NO
